In this section we review reported growth values for a set of compounds.
- System: LOX IMVI melanoma
- PROCEDURE_TEXT: NCI-60 one-dose screen, 48 h (100 = growth as untreated, 0 = no growth, -100 = all killed)
- STUDY_CONDITIONS: 10 µM unless noted
- Description: Growth inhibition of the LOX IMVI human tumor cell line is measured as a screen for anti-cancer activity. Cells are grown in 96 well plates and exposed to the test compound for 48 hours. Compounds are tested at a single concentration, which is 10^-5 M for most compounds. The reported endpoint is percent growth (GI% or GIPRCNT), where numbers from 0 - 100% represent growth inhibition, and numbers from -100% - 0 represent cell death. For example, a value of 40 represents 60% growth inhibition. […]
The panel holds about 83,000 compounds, 20% with a hit somewhere; the sample as a whole holds those more often. Active and inactive are the calls of the source. The calls were made as follows: active = growth percent below 10; inactive = the rest.

>  <COMPOUND>
COc1ncc(-c2ccc3ncnc(Nc4cccc(Cl)c4)c3c2)cc1NS(C)(=O)=O

>  <growth>
35.3% (inactive)

$$$$
>  <COMPOUND>
OCC1C2C=CC(C2)C1CO (stereo unspecified)

>  <growth>
101% (inactive)

$$$$
>  <COMPOUND>
C=C1CCC2C3(C)COC(c4cccc(Cl)c4)OC3CCC2(C)C1/C=C/C1=CCOC1=O (stereo unspecified)

>  <growth>
52.1% (inactive)

$$$$
>  <COMPOUND>
Nc1cc2ccncc2c2ccccc12

>  <growth>
50.8% (inactive)

$$$$
>  <COMPOUND>
CC[n+]1ccc2c(c1)C(=O)c1nccc3c1c-2nc1ccccc13

>  <growth>
-3.96% (active)

$$$$
>  <COMPOUND>
CCCCN(CCCC)CCC(C)(O)c1cc2ccccc2c2ccccc12 (stereo unspecified)

>  <growth>
45.7% (inactive)

$$$$
>  <COMPOUND>
O=C(Cc1ccccc1)c1ccc(Cl)cc1

>  <growth>
102% (inactive)

$$$$
>  <COMPOUND>
Nc1cccc(NC(=O)C(=O)Nc2cccc(N)c2)c1

>  <growth>
90% (inactive)

$$$$
>  <COMPOUND>
NC1=CC(=O)C(=O)c2ccccc21

>  <growth>
7.65% (active)

$$$$
>  <COMPOUND>
CCCCCCCCCc1cc(CN2CCCCC2)c(O)c(CN2CCCCC2)c1

>  <growth>
48.6% (inactive)

$$$$
>  <COMPOUND>
NS(=O)(=O)c1ccc(-n2ncc3c(=O)[nH]c(CN4CCN(c5cc6c(cc5F)c(=O)c(C(=O)O)cn6C5CC5)CC4)nc32)cc1

>  <growth>
97.2% (inactive)

$$$$
